Subject of test: hsMetAP-II (Homo sapiens)
Sequence (P50579 whole entry): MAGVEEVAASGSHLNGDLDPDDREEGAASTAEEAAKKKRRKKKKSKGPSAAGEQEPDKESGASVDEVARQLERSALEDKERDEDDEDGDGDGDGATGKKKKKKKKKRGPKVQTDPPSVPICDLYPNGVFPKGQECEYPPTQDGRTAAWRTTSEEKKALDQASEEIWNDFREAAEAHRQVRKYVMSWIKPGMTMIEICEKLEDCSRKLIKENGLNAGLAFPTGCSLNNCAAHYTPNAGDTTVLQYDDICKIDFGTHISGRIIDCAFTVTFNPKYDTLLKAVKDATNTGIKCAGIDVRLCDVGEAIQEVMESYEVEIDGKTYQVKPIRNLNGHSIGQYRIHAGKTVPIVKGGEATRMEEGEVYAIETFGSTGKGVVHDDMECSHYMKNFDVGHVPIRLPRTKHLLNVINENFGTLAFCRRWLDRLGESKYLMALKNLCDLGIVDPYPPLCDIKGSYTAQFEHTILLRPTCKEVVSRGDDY
Assay text: MetAP inhibitory activity, Met-Gly-Met-Met substrate, HPLC detection of Gly-Met-Met
Format: biochemical, hs
Study conditions: hsMetAP-II IC50, enzyme 50 nM, 400 µM Met-Gly-Met-Met, 60 minutes at 37 °C
pIC50: −log10 of the molar value.
pIC50 vs 6: at or above is fulfilled, below is not fulfilled.

CC(C)NC(=O)O[C@@H]1CC[C@@]2(CO2)c2c1nnn2Cc1ccccc1 (racemic) [UWU-XII-128-C] :: not fulfilled
COc1ccc(Cn2nnc3c2[C@]2(CC[C@H]3OC(=O)c3ccccc3)CO2)cc1 (racemic) [UWU-II-023-A] :: fulfilled
COc1ccc(Cn2nnc3c2C2(CCC3OC(=O)Nc3ccccc3)CO2)cc1 (racemic) [UWU-XIII-005-A] :: not fulfilled

query: Determine whether measured pIC50 meets or exceeds 6 for COc1ccc(Cn2nnc3c2C2(CCC3OC(=O)NCC(N)=O)CO2)cc1 (stereo not shown) [UWU-XII-143-A]
result: fulfilled

query: Determine whether measured pIC50 meets or exceeds 6 for COc1ccc(Cn2nnc3c2[C@@]2(CC[C@H]3OC(=O)c3ccccc3)CO2)cc1 (racemic) [UWU-XII-023-D]
result: not fulfilled

query: Determine whether measured pIC50 meets or exceeds 6 for CC(C)NC(=O)O[C@@H]1CC[C@]2(CO2)c2c1nnn2Cc1ccccc1 (racemic) [UWU-XII-128-A]
result: fulfilled

Taken from patent EP2711367A1.
